Entry source: patent US20210277015A1

# Assayed System: OGA (Homo sapiens, UniProt O60502)
# Construct: endogenous in cells; host or cells: HEK293 cells inducible for P301L mutant human Tau (isoform 2N4R)
# Procedure Text: OGA cellular assay (ICC detection of O-GlcNAcylated proteins in HEK293 cells inducible for P301L mutant human Tau)
# Format: cell-based
# Measurement Conditions: HEK293, HEK293 cells inducible for P301L mutant human Tau; maximum defined by Thiamet G at 200 uM
Measure: Emax (%)
// return numeric value only (unit: %, not printed)

Below are worked cases with known answers.
Compound | Assayed System | Unit | Emax
COc1cc(C[C@@H]2CCN([C@@H](C)c3cc4c(cc3F)OCCO4)C2)cc(C)n1 | OGA (Homo sapiens, UniProt O60502) | % | 68
Cc1ccc(O[C@H]2CCN(C(C)c3ccc4c(n3)OCCO4)C2)cn1 (stereo partly shown) | OGA (Homo sapiens, UniProt O60502) | % | 8
Cc1ncc(O[C@@H]2CCN(C(C)c3ccc4c(n3)OCCO4)C2)cn1 (stereo partly shown) | OGA (Homo sapiens, UniProt O60502) | % | 1
Cc1cc(O[C@@H]2CCN(C(C)c3nc4c(cc3F)CCO4)C2)cc(C)n1 (stereo partly shown) | OGA (Homo sapiens, UniProt O60502) | % | 77
COc1cc(C[C@H]2CN([C@H](C)c3ccc4c(n3)OCCO4)C[C@@H]2C)cc(C)n1 (stereo in doubt) | OGA (Homo sapiens, UniProt O60502) | % | 47

Q) Please look up its Emax: Cc1ccc(O[C@H]2CCN(C(C)c3nc4c(cc3F)OCCO4)C2)cn1 (stereo partly shown)
A) 33

Q) Please look up its Emax: Cc1cc(C[C@@H]2CCN(C(C)c3cnc4c(c3)OCCO4)C2)cc(C)n1 (mixture of isomers)
A) 20

Q) Please look up its Emax: Cc1cc(C[C@@H]2CCN(C(C)c3cc4c(cc3F)NCCO4)C2)cc(C)n1 (mixture of isomers)
A) 60
